Please provide measured melting point for the entries that follow.

In plain terms, COc1ccc(-c2nc(C)nn2-c2ccccc2S(N)(=O)=O)cc1OC has a documented melting point of 176 to 178 °C

In plain terms, O=C(O)CCCC1CCN(CCOC(c2ccc(F)cc2)c2ccc(F)cc2)CC1 has a documented melting point of 145 to 147 °C

In plain terms, O=C(NCNc1c(Nc2cccnc2)c(=O)c1=O)c1ccc(Cl)cc1 has a documented melting point of 174 to 176 °C

In plain terms, Nc1ccc(C(=O)N2CCOCC2)c(N)c1 has a documented melting point of 114 to 115 °C

In plain terms, Nc1cc(N2CCCCC2)c(F)cc1[N+](=O)[O-] has a documented melting point of 112 to 113 °C

In plain terms, NC1Cc2ccccc2N(c2ccccc2)C1=O (stereo unspecified) has a documented melting point of 108 to 110 °C

In plain terms, COCC(C)c1ccc(N2Cc3ccc(OC)cc3C2=O)cc1 (stereo unspecified) has a documented melting point of 116 to 118 °C

In plain terms, CC(C)(C)OC(=O)CCc1ccnc(-c2nc(=O)c3ccc(Br)cc3s2)c1 has a documented melting point of 173 to 174 °C

In plain terms, O=c1oc(-c2ccsc2)cc(O)c1SCc1ccccc1 has a documented melting point of 150 to 151 °C

In plain terms, CN1C(=O)CN(c2ccc(F)cc2)NC1=O has a documented melting point of 205 to 206 °C

In plain terms, C#Cc1ccc(-c2ccc(Br)cc2)cc1 has a documented melting point of 145 to 150 °C

###

Please provide measured melting point for the entries that follow.

In plain terms, COc1ccc(S(=O)(=O)C2(C(=O)O)CCN(CC=C(C)C)CC2)cc1 has a documented melting point of 142 to 145 °C

In plain terms, CCOC(=O)C(C)Cc1ccc(-n2c(C)nn(-c3ccc(C#N)cc3)c2=O)cc1 (stereo not given) has a documented melting point of 124 to 128 °C

In plain terms, COc1cc2ccccc2cc1N(C)C(=O)N1CCN(c2cc(F)cc(F)c2)CC1 has a documented melting point of 115 to 117 °C

In plain terms, CCS(=O)(=O)c1ccc(-c2cc(-c3nc(N)sc3-c3cccc(C)n3)ccn2)cc1 has a documented melting point of 219 °C

In plain terms, O=C(O)C=CC(=O)c1ccccc1[N+](=O)[O-] has a documented melting point of 153 to 158 °C

###

Please provide measured melting point for the entries that follow.

In plain terms, Cc1cc(O)nc(CCCCOc2nccc(NC(N)=NCC(F)(F)F)n2)n1 has a documented melting point of 191 to 193 °C

In plain terms, CCOc1ccc2c(=O)cc(-c3ccccc3)oc2c1 has a documented melting point of 138 to 139 °C

In plain terms, CN(C)C(=O)COc1ccc2c(c1)C[C@@H](NC[C@H](O)c1ccc(O)cc1)CC2 has a documented melting point of 169 to 172 °C

In plain terms, COC(CC#N)=NC#N has a documented melting point of 45.5 °C

In plain terms, O=C1CCC(c2ccccc2)(c2ccccc2)C2CN(C(Cc3ccccc3)=NCc3cccnc3)CC12 (stereo not given) has a documented melting point of 102 °C

In plain terms, COc1ccc(-c2cc(C(=O)O)c(=O)n(CC3CC3)n2)cc1F has a documented melting point of 169 to 171 °C

In plain terms, CC1CC(=O)NN=C1c1ccc(N2CCN(c3ncccn3)CC2)c([N+](=O)[O-])c1 (stereo not given) has a documented melting point of 232 to 233 °C

In plain terms, CC1=C(O)C(=O)C(C)(C(C)O)O1 (stereo not given) has a documented melting point of 112 to 114 °C

In plain terms, CC(C)C[C@H](O)[C@H](O)[C@@H](N)CC1CCCCC1 has a documented melting point of 110 to 111 °C

In plain terms, CCN(CC)CCN1C(=O)C(C)(C)N=C(c2ccccc2Cl)c2cc([N+](=O)[O-])ccc21 has a documented melting point of 70 °C

In plain terms, Brc1ccc2c3c(cccc13)C(NCCCCCCCCCCn1ccnc1)=N2 has a documented melting point of 115 to 116 °C

In plain terms, COc1cc(Br)nc(C(=O)O)c1OCc1ccccc1 has a documented melting point of 134 to 135 °C

In plain terms, CCN(CC)CCNC(=O)c1cc(I)cc2c(Cl)ccnc12 has a documented melting point of 76 to 78 °C

In plain terms, O=C(O)c1ccc2oc3c(c(=O)c2c1)CCC3=Cc1ccccn1 has a documented melting point of 325 to 328 °C

In plain terms, COc1cc(-n2nc(C#N)cc2-c2ccc(S(C)(=O)=O)cc2)ccc1Cl has a documented melting point of 203 to 205 °C

In plain terms, Nc1nc(O)c2c(n1)NCC(CCc1c[nH]c(C(=O)O)c1)C2 (stereo not given) has a documented melting point of > 260 °C

In plain terms, CCCCc1nnc2ccccc2c1Cc1ccc(-c2ccccc2)c(C(=O)O)c1 has a documented melting point of 210 °C

In plain terms, CS(=O)(=O)c1ccc(-c2cnn(Cc3cccnc3)c(=O)c2-c2ccc(F)cc2)cc1 has a documented melting point of 160 to 161 °C

In plain terms, Cc1c(-c2ccc(OC3CCCC3)cc2)[nH]c2ccc(OCc3ccccc3)cc12 has a documented melting point of 161 to 167 °C

In plain terms, CN1C(=O)C2(COc3cc4c(cc32)OCCO4)c2c(NC(=O)C3CCCCC3)cccc21 (stereo not given) has a documented melting point of 96 to 98 °C
